- Experimental System: human GPR119 receptor (Homo sapiens, UniProt Q8TDV5, S329A/T327A)
- Construct: N-terminal leader […]; expressed in transfected cells
- Sequence (Q8TDV5 with tags, fused parts or gaps T327A/S329A): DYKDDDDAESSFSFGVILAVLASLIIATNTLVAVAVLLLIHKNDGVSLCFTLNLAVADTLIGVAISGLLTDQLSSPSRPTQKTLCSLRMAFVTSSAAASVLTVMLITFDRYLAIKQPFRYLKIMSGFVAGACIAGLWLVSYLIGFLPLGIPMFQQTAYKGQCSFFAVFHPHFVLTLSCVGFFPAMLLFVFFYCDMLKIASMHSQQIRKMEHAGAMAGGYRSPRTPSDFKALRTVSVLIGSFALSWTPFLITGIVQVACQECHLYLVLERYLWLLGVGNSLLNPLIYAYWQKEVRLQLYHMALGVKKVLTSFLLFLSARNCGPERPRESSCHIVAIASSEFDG
- Procedure Text: cAMP assay (LANCE cAMP-384) in HEK293 cells stably expressing mutant human GPR119 receptor
- Type: cell-based
- Condition Info: the 34th table, compounds 65-1 to 65-24; read-out: EC50
Readout Label: pEC50
Field pEC50 (float): negative decimal logarithm of the concentration in molar.

Tell us which pEC50 value is on record for CS(=O)(=O)c1ccc(N2CCC(=NOC3CCN(S(=O)(=O)c4ccccc4)CC3)CC2)c(F)c1 [Example 65-18]
5.96

Tell us which pEC50 value is on record for CS(=O)(=O)c1ccc(N2CCC(=NOC3CCN(CC(=O)OCc4ccccc4)CC3)CC2)c(F)c1 [Example 65-5]
5.47

Tell us which pEC50 value is on record for CS(=O)(=O)c1ccc(N2CCC(=NOC3CCN(C(=O)Nc4ccccc4)CC3)CC2)c(F)c1 [Example 65-17]
5.69

Tell us which pEC50 value is on record for C=C(C)OC(=O)N1CCC(ON=C2CCN(c3ccc(S(C)(=O)=O)cc3F)CC2)CC1 [Example 65-15]
7.19

Tell us which pEC50 value is on record for CS(=O)(=O)c1ccc(N2CCC(=NOC3CCN(C(=S)NC4CCCCC4)CC3)CC2)c(F)c1 [Example 65-9]
5.75

Tell us which pEC50 value is on record for CC(C)COC(=O)N1CCC(ON=C2CCN(c3ccc(S(C)(=O)=O)cc3F)CC2)CC1 [Example 65-13]
7.09

Tell us which pEC50 value is on record for CS(=O)(=O)c1ccc(N2CCC(=NOC3CCN(C(=O)OCc4ccccc4)CC3)CC2)c(F)c1 [Example 65-14]
6.82

Tell us which pEC50 value is on record for CC(C)(C)COC(=O)N1CCC(ON=C2CCN(c3ccc(S(C)(=O)=O)cc3F)CC2)CC1 [Example 65-7]
7.24

Tell us which pEC50 value is on record for CC(C)(C)NC(=O)N1CCC(ON=C2CCN(c3ccc(S(C)(=O)=O)cc3F)CC2)CC1 [Example 65-11]
5.98

Tell us which pEC50 value is on record for CS(=O)(=O)c1ccc(N2CCC(=NOC3CCN(C(=O)c4ccccc4)CC3)CC2)c(F)c1 [Example 65-21]
6.13

Tell us which pEC50 value is on record for CS(=O)(=O)c1ccc(N2CCC(=NOC3CCN(C(=O)Oc4ccccc4)CC3)CC2)c(F)c1 [Example 65-12]
7.24

Tell us which pEC50 value is on record for CS(=O)(=O)c1ccc(N2CCC(=NOC3CCN(C(=O)c4ccc(F)cc4)CC3)CC2)c(F)c1 [Example 65-22]
6.88

Tell us which pEC50 value is on record for CS(=O)(=O)c1ccc(N2CCC(=NOC3CCN(CC(=O)Oc4ccccc4)CC3)CC2)c(F)c1 [Example 65-6]
6.07
